# Tested on: HOP-92 NSCLC
# Method: NCI-60 one-dose screen, 48 h (100 = growth as untreated, 0 = no growth, -100 = all killed)
# Condition Description: 10 µM unless noted
About 83,000 compounds went through this panel and 20% of them were active in at least one assay; those are over-represented in the sample as a whole. Active and inactive are the calls of the source. How the source made its calls: active means growth percent below 10; inactive means the rest.
Entries and their measured growth follow.

INSERT INTO results (compound, endpoint_result) VALUES
  ('N#Cc1c(-c2ccccc2)nc(SCC(O)CN2CCOCC2)nc1N1CCOCC1 (stereo not drawn)', '30.7% (inactive)'),
  ('C#CCO[C@H]1CC(CC#C)(CC#C)C(=O)[C@@H]2[C@H]1[C@H]1C[C@@H]3[C@@]4(C)CCC[C@@](C)(C(=O)OC)[C@@H]4CC[C@@]23C=C1C(C)C', '13.6% (inactive)'),
  ('Cc1ccc(S(=O)(=O)N2CCC(=O)c3ccccc32)cc1', '80.8% (inactive)');

Form field growth, entry CC(=O)Oc1ccc(OC(C)=O)c2ccccc12 : -88.6% (active)

For reference, reported growth for C=CN(C(=O)N1CCN(c2cc3c(cc2F)c(=O)c(C(=O)O)cn3C2CC2)CC1)c1nc(-c2ccc(OC)cc2)cs1 stands at -14.1% (active)

O=C(Oc1ccc(CCl)cc1)c1ccccc1 yielded growth of -89.7% (active)

Per the record, O=C(CCl)NNc1nccc(Nc2ccc(S(=O)(=O)Nc3ccncc3)cc2)n1 has growth of 37.3% (inactive)

response.value for COc1ccc2[nH]cc(-c3nc(-c4c[nH]c5c(Cl)nccc45)cs3)c2c1 (field: growth) = 56.2% (inactive)

Entry O=C(/C=C/c1ccccc1)c1ccc(Nc2nc(Nc3ccc(F)cc3)nc(Nc3ccc(Cl)cc3)n2)cc1 ; growth = 48.1% (inactive)

Form field growth, entry C=C1C(=O)O[C@H]2[C@H]1CC/C(COC(=O)/C=C/C(=O)OC/C1=C/CC[C@@]3(C)O[C@H]3[C@H]3OC(=O)C(=C)[C@@H]3CC1)=C\CC[C@@]1(C)O[C@@H]21 : 19% (inactive)

Noted for COC(=O)/C=C1/SC(=Nc2ccc([N+](=O)[O-])cc2)N(CCc2c[nH]c3ccc(O)cc23)C1=O : its growth reads 27.3% (inactive)

Lab book: growth of O=C(Nc1ncccc1OCc1ccccc1)NC1CCCCCC1 noted as 68.4% (inactive)

growth recorded for this compound, COc1cc(C(=O)n2nc(N3CCOCC3)c3cc(-n4cccc4)ccc32)cc(OC)c1OC , is 14.4% (inactive)

get_value(item= C=C(C)[C@@H]1CC[C@]2(COC(C)=O)CC[C@]3(C)[C@H](CC[C@@H]4[C@@]5(C)CCCN(C(C)=O)C(C)(C)[C@@H]5CC[C@]43C)[C@@H]12 , readout=growth) returns 69.3% (inactive)

// recorded growth for CC1=CCC(OC(=O)C(C)(C)CC(O)(C(C)O)C(O)C2(C)C=CC(Cc3ccc(C(C)C)cc3)(C(C)C)CC2)(C(C)C)CC1 (stereo not drawn) : 84.9% (inactive)

Notebook: Cc1cccc(-c2nc(Nc3ccc4ncsc4c3)c3ccccc3n2)n1 , growth read as 110% (inactive)

Measured growth of NC(N)=NS(=O)(=O)c1ccc(NC2=C(I)C(=O)c3ncccc3C2=O)cc1 : 115% (inactive)

growth for O=C(Cc1ccccc1)Nc1cccc(N=Cc2ccccc2O)c1 is 88.1% (inactive)
